Numbers sourced from patent US20260116991A1.

Consider the following binders; for each one, report its OD450 at 10 nM antibody.
# test target: T1, murine GPC3-his protein (Sino Biological, Cat. No. 50989-M08B) (murine, UniProt Q8CFZ4 25-558)
# T1 construct: Bought protein; also called murine GPC3 protein
# T1 sequence (Q8CFZ4 25-558 limits assumed): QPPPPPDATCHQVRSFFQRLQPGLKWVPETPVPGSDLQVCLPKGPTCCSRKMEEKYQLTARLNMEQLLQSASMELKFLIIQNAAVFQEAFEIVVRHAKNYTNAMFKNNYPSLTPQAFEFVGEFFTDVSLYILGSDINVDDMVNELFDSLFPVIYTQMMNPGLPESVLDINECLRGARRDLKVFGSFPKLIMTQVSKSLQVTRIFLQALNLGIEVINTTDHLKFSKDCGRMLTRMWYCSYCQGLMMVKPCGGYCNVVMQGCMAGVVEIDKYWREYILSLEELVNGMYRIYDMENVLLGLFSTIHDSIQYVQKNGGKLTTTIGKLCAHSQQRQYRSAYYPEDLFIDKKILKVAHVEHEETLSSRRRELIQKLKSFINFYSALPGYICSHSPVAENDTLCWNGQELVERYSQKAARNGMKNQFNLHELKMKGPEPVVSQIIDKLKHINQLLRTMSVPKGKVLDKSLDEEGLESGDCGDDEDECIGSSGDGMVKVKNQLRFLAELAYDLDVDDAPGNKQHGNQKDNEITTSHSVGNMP
# measurement protocol: ELISA, coated murine GPC3-His;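 also: antigen coated on plates at 1 µg/mL, test antibody bound for 2 h at 37 °C, detected with HRP-conjugated secondary antibody and TMB substrate after acid stop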
Output spec: scalar in OD450 nm, unitless text.

*Q* Consider the binder F3.38.7 human-murine chimeric antibody (antibody, human IgG1, kappa, V domains shown) VH: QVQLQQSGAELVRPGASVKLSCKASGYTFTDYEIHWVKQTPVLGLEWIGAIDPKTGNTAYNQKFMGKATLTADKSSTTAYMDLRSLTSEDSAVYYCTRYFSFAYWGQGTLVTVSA VL: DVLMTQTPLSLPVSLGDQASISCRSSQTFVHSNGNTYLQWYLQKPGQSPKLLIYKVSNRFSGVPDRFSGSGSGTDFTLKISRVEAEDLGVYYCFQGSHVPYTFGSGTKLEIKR and give its measured OD450 at 10 nM antibody.
*A* 0.06

*Q* Consider the binder F1.153.1 human-murine chimeric antibody (antibody, human IgG1, kappa, V domains shown) VH: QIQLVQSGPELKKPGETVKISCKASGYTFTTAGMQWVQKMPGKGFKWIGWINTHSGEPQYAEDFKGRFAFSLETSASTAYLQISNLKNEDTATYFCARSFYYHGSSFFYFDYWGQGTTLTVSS VL: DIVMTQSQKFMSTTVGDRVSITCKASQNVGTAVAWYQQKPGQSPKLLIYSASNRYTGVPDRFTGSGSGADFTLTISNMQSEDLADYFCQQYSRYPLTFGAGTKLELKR and give its measured OD450 at 10 nM antibody.
*A* 0.08

*Q* Consider the binder F2.92.1 human-murine chimeric antibody (antibody, human IgG1, kappa, V domains shown) VH: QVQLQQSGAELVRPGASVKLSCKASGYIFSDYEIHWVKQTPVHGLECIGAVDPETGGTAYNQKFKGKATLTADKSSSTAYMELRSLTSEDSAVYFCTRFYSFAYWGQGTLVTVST VL: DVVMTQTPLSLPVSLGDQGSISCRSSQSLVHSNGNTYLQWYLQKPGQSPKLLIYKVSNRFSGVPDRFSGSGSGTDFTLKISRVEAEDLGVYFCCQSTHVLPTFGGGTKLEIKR and give its measured OD450 at 10 nM antibody.
*A* 0.05

*Q* Consider the binder F4.21.16 human-murine chimeric antibody (antibody, human IgG1, kappa, V domains shown) VH: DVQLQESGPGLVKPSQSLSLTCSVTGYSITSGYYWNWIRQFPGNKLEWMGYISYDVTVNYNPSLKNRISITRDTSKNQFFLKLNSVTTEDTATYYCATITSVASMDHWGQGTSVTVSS VL: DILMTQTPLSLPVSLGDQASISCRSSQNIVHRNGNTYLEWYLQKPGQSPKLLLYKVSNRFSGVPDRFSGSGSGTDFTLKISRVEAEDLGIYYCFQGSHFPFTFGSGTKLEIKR and give its measured OD450 at 10 nM antibody.
*A* 0.05

*Q* Consider the binder F3.81.19 human-murine chimeric antibody (antibody, human IgG1, kappa, V domains shown) VH: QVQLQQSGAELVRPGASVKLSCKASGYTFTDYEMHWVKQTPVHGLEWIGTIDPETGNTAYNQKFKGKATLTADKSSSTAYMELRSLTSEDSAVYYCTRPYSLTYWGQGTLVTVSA VL: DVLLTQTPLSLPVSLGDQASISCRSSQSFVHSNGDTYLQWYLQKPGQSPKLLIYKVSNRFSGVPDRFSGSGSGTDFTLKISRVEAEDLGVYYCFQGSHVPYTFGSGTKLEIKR and give its measured OD450 at 10 nM antibody.
*A* 0.05
